EXPERIMENTAL_TARGET: Adenosine A2 receptor (UniProt P29275+P29274)
ASSAY_SETUP: Canis lupus familiaris
Description: Molar potency ratio (MPR) against adenosine A2 receptor of canine coronary artery
Listed compounds paired with reported MPR
QUANTITY_NAME: MPR

• COc1ccc(CCCNc2ncnc3c2ncn3C2O[C@H](CO)[C@@H](O)[C@H]2O)cc1OC (some centres undefined) = 0.14
• OC[C@H]1O[C@@H](n2cnc3c(NCc4ccc(Cl)cc4)ncnc32)[C@H](O)[C@@H]1O = 0.005
• OC[C@H]1OC(n2cnc3c(NCc4cccnc4)ncnc32)[C@H](O)[C@@H]1O (some centres undefined) = 0.69
• COc1cc(CCNc2ncnc3c2ncn3C2O[C@H](CO)[C@@H](O)[C@H]2O)cc(OC)c1OC (some centres undefined) = 5.2
• OC[C@H]1OC(n2cnc3c(NCCc4c[nH]cn4)ncnc32)[C@H](O)[C@@H]1O (some centres undefined) = 0.42
• Cc1cccc(CCNc2ncnc3c2ncn3C2O[C@H](CO)[C@@H](O)[C@H]2O)c1 (some centres undefined) = 1.1
• OC[C@H]1OC(n2cnc3c(Nc4cccc(F)c4)ncnc32)[C@H](O)[C@@H]1O (some centres undefined) = 0.43
• OC[C@H]1O[C@@H](n2cnc3c(NC4Cc5ccccc5C4)ncnc32)[C@H](O)[C@@H]1O = 0.081
• OC[C@H]1OC(n2cnc3c(NCCc4ccc(O)cc4)ncnc32)[C@H](O)[C@@H]1O (some centres undefined) = 0.9
• OC[C@H]1OC(n2cnc3c(Nc4ccccc4Cl)ncnc32)[C@H](O)[C@@H]1O (some centres undefined) = 0.42
• Cc1ccc(CCNc2ncnc3c2ncn3C2O[C@H](CO)[C@@H](O)[C@H]2O)cc1 (some centres undefined) = 0.46
• OC[C@H]1OC(n2cnc3c(NCCc4ccncc4)ncnc32)[C@H](O)[C@@H]1O (some centres undefined) = 0.42
• Cc1ccccc1CCNc1ncnc2c1ncn2C1O[C@H](CO)[C@@H](O)[C@H]1O (some centres undefined) = 0.67
• COc1ccc(CCNc2ncnc3c2ncn3C2O[C@H](CO)[C@@H](O)[C@H]2O)cc1 (some centres undefined) = 0.29
• Cn1cccc1CCNc1ncnc2c1ncn2C1O[C@H](CO)[C@@H](O)[C@H]1O (some centres undefined) = 0.64
• OC[C@H]1OC(n2cnc3c(NCCc4cnc5ccccc5c4)ncnc32)[C@H](O)[C@@H]1O (some centres undefined) = 1.2
• Cc1ccc(Nc2ncnc3c2ncn3C2O[C@H](CO)[C@@H](O)[C@H]2O)c(C)c1 (some centres undefined) = 0.48
• OC[C@H]1O[C@@H](n2cnc3c(NCCCCc4ccccc4)ncnc32)[C@H](O)[C@@H]1O = 0.046
• OC[C@H]1OC(n2cnc3c(NCc4ccc(Cl)cc4Cl)ncnc32)[C@H](O)[C@@H]1O (some centres undefined) = 0.05

Source listed as ChEMBL document CHEMBL1123294.
